biological target: Histone deacetylase 5 (Homo sapiens, UniProt Q9UQL6); assay: Inhibition of human recombinant HDAC5
Sequence (Q9UQL6 whole entry): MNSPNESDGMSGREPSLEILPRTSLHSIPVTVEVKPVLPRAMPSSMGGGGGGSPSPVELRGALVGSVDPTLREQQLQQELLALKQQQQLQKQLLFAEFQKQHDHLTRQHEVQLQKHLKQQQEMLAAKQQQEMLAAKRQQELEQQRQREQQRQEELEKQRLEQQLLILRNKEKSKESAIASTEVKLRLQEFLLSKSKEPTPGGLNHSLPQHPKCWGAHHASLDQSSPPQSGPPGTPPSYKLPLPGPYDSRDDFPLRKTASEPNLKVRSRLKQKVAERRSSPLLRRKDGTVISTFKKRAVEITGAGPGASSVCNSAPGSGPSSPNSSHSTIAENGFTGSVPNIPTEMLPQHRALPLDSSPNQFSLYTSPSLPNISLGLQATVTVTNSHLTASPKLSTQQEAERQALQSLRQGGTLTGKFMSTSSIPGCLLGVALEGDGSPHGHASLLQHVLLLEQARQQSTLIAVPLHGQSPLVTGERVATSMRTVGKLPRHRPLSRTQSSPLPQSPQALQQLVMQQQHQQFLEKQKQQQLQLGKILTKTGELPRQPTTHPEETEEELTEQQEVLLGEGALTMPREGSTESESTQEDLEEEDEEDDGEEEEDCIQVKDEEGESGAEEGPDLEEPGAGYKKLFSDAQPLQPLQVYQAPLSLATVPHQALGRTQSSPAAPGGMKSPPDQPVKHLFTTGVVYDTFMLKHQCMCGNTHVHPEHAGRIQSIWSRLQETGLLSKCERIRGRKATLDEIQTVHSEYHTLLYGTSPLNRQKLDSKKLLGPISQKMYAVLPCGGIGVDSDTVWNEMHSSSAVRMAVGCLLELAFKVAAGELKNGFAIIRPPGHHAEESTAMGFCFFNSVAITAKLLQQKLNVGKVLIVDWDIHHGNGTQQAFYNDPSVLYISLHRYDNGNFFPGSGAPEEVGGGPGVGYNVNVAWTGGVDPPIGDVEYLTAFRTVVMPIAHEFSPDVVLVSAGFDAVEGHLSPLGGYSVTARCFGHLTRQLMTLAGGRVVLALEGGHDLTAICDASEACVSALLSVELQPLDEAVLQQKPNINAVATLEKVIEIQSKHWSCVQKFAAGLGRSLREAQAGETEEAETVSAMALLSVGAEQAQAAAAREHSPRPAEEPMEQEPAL
pIC50: −log10 of the molar value.
measured quantity: pIC50

• O=C(O)CCCc1ccccc1 = < 2.70
• CCCC(=O)O = < 2.70

Then this compound:
Query block: Under Histone deacetylase 5 (Homo sapiens, UniProt Q9UQL6): pIC50 value of CCCC(CCC)C(=O)O ?
Result block: < 2.70
